In this section, each of the molecules is paired with its reported inhibition.
test target: Nuclear receptor coactivator 1 (Homo sapiens)
procedure details: SRC1 coactivator transcriptional activity inhibitors, confirmation, cell-based, luminescence, quadruplicate (AID 588820);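 further: 0% = DMSO wells and 100% = gossypol 36 µM treated wells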
measurement context: HEK293 GAL4-SRC1 luciferase reporter, at 3.6 µM, active compounds read high
experimental endpoint: inhibition (%)

>>> df
                                    molecule  experimental_endpoint  numeric_readout
 0  CN(C)C=Nc1c(C(=O)c2ccccc2)sc2nccc(N(C)C)c12             inhibition             30.8
 1     COc1ccc(C(=O)Nc2nnc(Cc3cccs3)s2)cc1OC             inhibition            -3.67
 2               COc1ccc(Nc2ccnc3ccccc23)cc1             inhibition             52.8
 3  O=C(NC1CCCCC1)C(c1ccc(F)cc1)N(CCCN1CCOCC1)C(=O)c1ccc(CN2CCOCC2)o1 (configuration not stated)             inhibition            -0.03
 4      Oc1ccc(N=Nc2ccc3c(c2)OCCO3)c2cccnc12             inhibition             4.34
 5  COc1ccc(NS(=O)(=O)c2cc(NC(=O)CC(C)(C)C)ccc2N2CCCC2)cc1             inhibition            -10.7
 6                  Cc1ccnc2c1ccc1c(C)ccnc12             inhibition             73.3
 7  CN(Cc1cnc2nc(N)nc(N)c2n1)c1ccc(C(=O)N[C@@H](CCC(=O)O)C(=O)O)cc1             inhibition               35
 8  O=C(CCl)N1N=C(c2ccco2)CC1c1cccs1 (configuration not stated)             inhibition             15.3
 9           C/C(CC(C)(C)C1CCCCC1)=N\NC(N)=S             inhibition             48.5
10  CSc1nc(N)nc2c1ncn2CC(=O)N1CCN(Cc2c(C)cc(C)cc2C)CC1             inhibition            -3.22
11  CN(C(=O)COc1ccccc1C(=O)NCCOc1ccccc1)c1ccccc1             inhibition            -24.3
12  Cc1cc(C)n(-c2ccc(C(=O)Nc3ccc(S(=O)(=O)NCc4ccco4)cc3)cc2)n1             inhibition            -5.13
13  O=C(CSc1nnc(-c2cccnc2)s1)Nc1ccnc2ccccc12             inhibition            -3.87
14  COc1ccc(NC(=O)C2Cc3c(-c4ccc5c(c4)OCO5)ccnc3O2)cc1OC (configuration not stated)             inhibition              0.9
15  OC[C@@H]1CN(Cc2ccncc2)C[C@H](n2cnc3c(N4CCN(c5ccccc5)CC4)ncnc32)O1             inhibition              2.2
16  CCOC(=O)C1=C(COC(=O)Cc2ccc(Br)cc2)NC(=O)NC1C (configuration not stated)             inhibition            -7.28
17  O=C(O)C1CCCN1c1nc(-c2ccc(Cl)c(Cl)c2)cc(C(F)(F)F)n1 (configuration not stated)             inhibition             48.3
18    Cc1ccc(S(=O)(=O)/N=C(\CCl)N2CCOCC2)cc1             inhibition            -32.5
19  O=C(Nc1nc(-c2ccc3ccccc3c2)cs1)C1CCN(S(=O)(=O)c2cccs2)CC1             inhibition            -6.77
20  COc1cc(OC)c2cc(C(=O)N/N=C/c3cccc(OC)c3O)[nH]c2c1             inhibition             17.7
21            Cc1cccc(Nc2ncnc3ccc(Br)cc23)c1             inhibition             32.8
